# measured_target: mutant B-RAF (Homo sapiens, UniProt P15056, V600E)
# Construct: purchased Upstate (Charlottesville, Va.)
# Sequence (P15056 whole entry V600E): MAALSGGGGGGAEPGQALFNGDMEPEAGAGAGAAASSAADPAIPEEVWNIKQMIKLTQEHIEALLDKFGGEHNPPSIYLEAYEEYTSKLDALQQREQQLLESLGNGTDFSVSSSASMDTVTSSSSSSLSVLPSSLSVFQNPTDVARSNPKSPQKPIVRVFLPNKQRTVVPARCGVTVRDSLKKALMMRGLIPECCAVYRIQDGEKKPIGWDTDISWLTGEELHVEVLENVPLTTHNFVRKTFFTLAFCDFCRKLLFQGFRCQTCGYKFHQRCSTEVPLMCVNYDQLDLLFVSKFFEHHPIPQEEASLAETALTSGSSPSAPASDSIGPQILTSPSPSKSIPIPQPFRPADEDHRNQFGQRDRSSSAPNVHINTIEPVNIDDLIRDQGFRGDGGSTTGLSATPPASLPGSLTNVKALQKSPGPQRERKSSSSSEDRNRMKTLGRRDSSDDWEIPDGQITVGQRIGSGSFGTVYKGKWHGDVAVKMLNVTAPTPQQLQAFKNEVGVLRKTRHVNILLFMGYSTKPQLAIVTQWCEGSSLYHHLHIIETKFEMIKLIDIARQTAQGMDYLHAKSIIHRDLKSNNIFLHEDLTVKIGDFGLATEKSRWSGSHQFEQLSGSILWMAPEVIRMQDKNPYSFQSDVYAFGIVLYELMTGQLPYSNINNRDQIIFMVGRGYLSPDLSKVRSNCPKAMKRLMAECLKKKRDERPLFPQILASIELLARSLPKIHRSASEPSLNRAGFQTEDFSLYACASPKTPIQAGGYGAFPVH
# assay_text: RAF biochemical assay (MEK-1 phosphorylation, anti-phospho MEK1/2 detection)
# measurement_setup: read-out: Mutant B-RAF IC50
pIC50: −log10 of the molar value.
Param threshold (6) applies to pIC50; output 1.0 when value >= threshold, 0.0 when value < threshold.

For orientation, consider the following solved cases.
Check the entry Cc1ccc(-c2nc3scc(C)n3c2-c2ccnc(NC3CCN(C(=O)Nc4ccc(N(C)C)cc4)CC3)n2)cc1 [Example 252] : does pIC50 equal or exceed 6?
0.0

Check the entry CC(C)NC(=O)N1CCC[C@@H](Nc2nccc(-c3c(-c4cccc(O)c4)nc4sccn34)n2)C1 [Example 334] : does pIC50 equal or exceed 6?
1.0

Check the entry CC(C)(C)NC(=O)N1CCC(Nc2nccc(-c3c(-c4ccc(F)cc4)nc4occn34)n2)CC1 [Example 185] : does pIC50 equal or exceed 6?
0.0

Check the entry O=C(COc1ccc(Cl)cc1)N1CCC(Nc2nccc(-c3c(-c4ccc(F)cc4)nc4occn34)n2)CC1 [Example 160] : does pIC50 equal or exceed 6?
0.0

Check the entry N#Cc1ccc(S(=O)(=O)N2CCC(Nc3nccc(-c4c(-c5cccc(O)c5)nc5occn45)n3)CC2)cc1 [Example 317] : does pIC50 equal or exceed 6?
1.0

Check the entry COc1cccc(-c2nc3sccn3c2-c2ccnc(N[C@@H]3CCN(S(=O)(=O)c4ccc(C(=O)O)cc4)C3)n2)c1 [Example 281] : does pIC50 equal or exceed 6?
0.0

Let us examine a further case.
Check the entry Cc1cn2c(-c3ccnc(N[C@@H]4CCCN(S(=O)(=O)c5ccc(Cl)cc5)C4)n3)c(-c3ccc(F)cc3)nc2s1 [Example 96] : does pIC50 equal or exceed 6?
1.0

====

# measured_target: mutant B-RAF (Homo sapiens, UniProt P15056, V600E)
# Construct: purchased Upstate (Charlottesville, Va.)
# assay_text: RAF biochemical assay (MEK-1 phosphorylation, anti-phospho MEK1/2 detection)
# measurement_setup: @ 10 uM; read-out: Mutant B-RAF % inhibition
Param threshold (40%) applies to inhibition at 10 µM; output t when value >= threshold, f when value < threshold.

For orientation, consider the following solved cases.
Check the entry CN(C)c1ccc(NC(=O)N2CCC[C@@H](Nc3nccc(-c4c(-c5ccc(F)cc5)nc5occn45)n3)C2)cc1 : does inhibition at 10 µM equal or exceed 40%?
t

Check the entry Cc1noc(C)c1NC(=O)N1CCC(Nc2nccc(-c3c(-c4ccc(F)cc4)nc4occn34)n2)CC1 : does inhibition at 10 µM equal or exceed 40%?
f

Check the entry O=C(NCc1ccco1)N1CCC[C@@H](Nc2nccc(-c3c(-c4ccc(F)cc4)nc4occn34)n2)C1 : does inhibition at 10 µM equal or exceed 40%?
f

Check the entry O=S(=O)(c1cccc(Cl)c1)N1CCC[C@@H](Nc2nccc(-c3c(-c4ccc(F)cc4)nc4occn34)n2)C1 : does inhibition at 10 µM equal or exceed 40%?
f

Check the entry CC(=O)NC(CO)C(=O)N1CCC(Nc2nccc(-c3c(-c4ccc(F)cc4)nc4occn34)n2)CC1 (stereo not shown) : does inhibition at 10 µM equal or exceed 40%?
t

Let us examine a further case.
Check the entry COc1ccc(Cl)cc1NC(=O)N1CCC[C@@H](Nc2nccc(-c3c(-c4ccc(F)cc4)nc4occn34)n2)C1 : does inhibition at 10 µM equal or exceed 40%?
t
